Target: tyrosinase (Agaricus bisporus)
experimental.endpoint: IC50

Simply: "COc1cc(C(=O)OCCCCNC(=N)N)cc(OC)c1O" , tyrosinase (Agaricus bisporus), IC50 = 12.4 µM

###

Biological target: tyrosinase (Agaricus bisporus, UniProt C7FF04)
Construct: purchased Sigma-Aldrich T3824
Sequence (C7FF04 1-392 limits assumed): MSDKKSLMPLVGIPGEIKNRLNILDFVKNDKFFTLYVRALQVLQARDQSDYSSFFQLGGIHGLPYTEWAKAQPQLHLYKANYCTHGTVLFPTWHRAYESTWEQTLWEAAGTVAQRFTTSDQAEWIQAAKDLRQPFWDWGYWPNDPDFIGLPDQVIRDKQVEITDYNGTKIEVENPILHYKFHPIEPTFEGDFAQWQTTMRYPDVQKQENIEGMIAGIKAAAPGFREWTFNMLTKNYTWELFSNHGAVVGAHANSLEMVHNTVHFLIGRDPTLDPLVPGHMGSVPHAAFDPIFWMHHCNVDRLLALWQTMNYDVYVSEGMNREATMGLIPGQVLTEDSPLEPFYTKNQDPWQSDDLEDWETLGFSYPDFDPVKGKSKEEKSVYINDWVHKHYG
Test: Tyrosinase enzymatic assay (L-tyrosine substrate, absorbance at 475 nm)
Assay type: biochemical
Settings: compound concentration 100 μM; L-tyrosine substrate; triplicate, mean ± SD; read-out: Inhibition Rate (%) at 100 μM
experimental.endpoint: inhibition at 100 µM

Considering "COc1cc(C(=O)O)cc(OC)c1O" , its inhibition at 100 µM with tyrosinase (Agaricus bisporus, UniProt C7FF04) was recorded as 11.6%

Entry "COc1cc(C(=O)OCCCCN=C(N)N)cc(OC)c1OC" , tested on tyrosinase (Agaricus bisporus, UniProt C7FF04), has a reported inhibition at 100 µM of > 80%

Per the reported tyrosinase (Agaricus bisporus, UniProt C7FF04) data, "COc1cc(C(=O)OCCCCNC(=N)N)cc(OC)c1O" has inhibition at 100 µM of > 80%

Summary line: "O=c1c(O[C@@H]2O[C@H](CO)[C@@H](O)[C@H](O)[C@H]2O)c(-c2ccc(O)c(O)c2)oc2cc(O)cc(O)c12" , tyrosinase (Agaricus bisporus, UniProt C7FF04), reported inhibition at 100 µM = 1.8%

These data points were gathered from paper PMC7072302.
